- procedure_details: Luciferase activity of purified RLuc mutants (light output integrated over 10 s, luminometer)
- Assay type: biochemical
- study_conditions: bisdeoxycoelenterazine; relative to native enzyme

molecule	Activity (relative to RLuc) bdc
C124A/F261L/F262L: RLuc mutant C124A/F261L/F262L (protein) MASKVYDPEQRKRMITGPQWWARCKQMNVLDSFINYYDSEKHAENAVIFLHGNAASSYLWRHVVPHIEPVARCIIPDLIGMGKSGKSGNGSYRLLDHYKYLTAWFELLNLPKKIIFVGHDWGAALAFHYSYEHQDKIKAIVHAESVVDVIESWDEWPDIEEDIALIKSEEGEKMVLENNFFVETMLPSKIMRKLEPEEFAAYLEPFKEKGEVRRPTLSWPREIPLVKGGKPDVVQIVRNYNAYLRASDDLPKMFIESDPGLLSNAIVEGAKKFPNTEFVKVKGLHFSQEDAPDEMGKYIKSFVERVLKNEQ	0.00
E44G/C124A: RLuc mutant E44G/C124A (protein) MASKVYDPEQRKRMITGPQWWARCKQMNVLDSFINYYDSEKHAGNAVIFLHGNAASSYLWRHVVPHIEPVARCIIPDLIGMGKSGKSGNGSYRLLDHYKYLTAWFELLNLPKKIIFVGHDWGAALAFHYSYEHQDKIKAIVHAESVVDVIESWDEWPDIEEDIALIKSEEGEKMVLENNFFVETMLPSKIMRKLEPEEFAAYLEPFKEKGEVRRPTLSWPREIPLVKGGKPDVVQIVRNYNAYLRASDDLPKMFIESDPGFFSNAIVEGAKKFPNTEFVKVKGLHFSQEDAPDEMGKYIKSFVERVLKNEQ	0.98
